assay: NCI Yeast Anticancer Drug Screen. Data for the sgs1 mgt1 strain (AID 161); conditions: S. cerevisiae sgs1 mgt1 strain, at 50.0 µM (retest, dose inferred, filed as 5.0)
Compounds without any hit were thinned out: in the full panel of roughly 79,000, 15% have a hit. Calls of active or inactive are those of the source. Cut-off read from the data, not from the text of the source: active = growth inhibition above about 70%; inactive = the rest.
Possible outcomes: T for active, F for inactive

{"columns": ["compound_structure", "label_value"],
 "data": [
  ["Cc1cc(Br)c(NC(=O)CBr)cc1C", "T"],
  ["Brc1ccc(N2COc3ccc4ccccc4c3C2)cc1", "F"],
  ["N#CSc1ccc(Nc2ccc(SC#N)cc2)cc1", "T"],
  ["O=C1C(Sc2ccc3ccccc3c2)=C(Sc2ccc3ccccc3c2)C(=O)c2ccccc21", "T"],
  ["Cn1cc(-c2c3c(cc4c2OCO4)OCO3)c2ccccc21", "T"],
  ["CN1C(=O)c2cccc3cc([N+](=O)[O-])cc(c23)C1=O", "F"],
  ["O=C(Nc1ccc(C(=O)Nc2ccc3c(O)cc(S(=O)(=O)O)cc3c2)cc1)c1ccccc1", "F"],
  ["CCc1ccc(C(=O)O)cc1", "F"],
  ["COc1ccc2cc(Br)ccc2c1", "F"],
  ["O/N=C(/Cc1ccccc1)c1ccc2c(c1)OCO2", "F"],
  ["COc1ccc(Oc2c(OC)cc(NCCCCCNC(C)C)c3ncccc23)cc1", "T"],
  ["Cc1ccc(S(=O)(=O)OCC(C)(C)C)cc1", "F"]
]}
